Tested on: TUS/R line 4 (MOLM-14)
method: Growth inhibition of TUS-resistant subline
Type: cell-based, human
conditions: Homo sapiens, MOLM-14, read-out: GI50 (nM) TUS/R line 4; mean ± SEM (Supplementary Table 6)
Each record here notes measured GI50.
readout-name: GI50

line-notation	val
Nc1ncn([C@@H]2O[C@H](CO)[C@@H](O)[C@H]2O)c(=O)n1	1580 nM
Cc1c2c(nn1C)CSCc1cc(n(C)n1)CSc1cc(c3ccccc3c1)OCCCc1c(C(=O)O)n(C)c3c-2c(Cl)ccc13	18.2 nM
N#CC[C@H](C1CCCC1)n1cc(-c2ncnc3[nH]ccc23)cn1	~1130 nM
CCc1nc(C(N)=O)c(Nc2ccc(N3CCC(N4CCN(C)CC4)CC3)c(OC)c2)nc1NC1CCOCC1	128 nM
CC(=O)Nc1cccc(-n2c(=O)n(C3CC3)c(=O)c3c(Nc4ccc(I)cc4F)n(C)c(=O)c(C)c32)c1	102 nM
Cn1c(=O)n(-c2ccc(C(C)(C)C#N)cc2)c2c3cc(-c4cnc5ccccc5c4)ccc3ncc21	26.8 nM
COC1=CC(c2cc3ccccc3[nH]2)=N/C1=C\c1[nH]c(C)cc1C	142 nM
CC1(C)CCC(c2ccc(Cl)cc2)=C(CN2CCN(c3ccc(C(=O)NS(=O)(=O)c4ccc(N[C@H](CCN5CCOCC5)CSc5ccccc5)c(S(=O)(=O)C(F)(F)F)c4)cc3)CC2)C1	15 nM
CC(C)(C)c1cc(NC(=O)Nc2ccc(-c3cn4c(n3)sc3cc(OCCN5CCOCC5)ccc34)cc2)no1	0.5 nM
COc1cc(Nc2ncc(F)c(Nc3ccc4c(n3)N(COP(=O)(O)O)C(=O)C(C)(C)O4)n2)cc(OC)c1OC	459 nM
Cc1ccc2c(-c3nc(Nc4cc(CN5C[C@@H](C)N[C@@H](C)C5)cc(C5CC5)c4)ncc3Cl)c[nH]c2c1	144 nM
Cc1cnc(-c2ccc(-c3ccc(NC(=O)Nc4c(F)cc(F)cc4F)cc3F)c3c2C(=O)NC3)[nH]1	0.1 nM
